Data provenance is patent US20060183700A1.

# Measured On: T1, CGRP (biotinylated) (Rattus norvegicus, UniProt P01256 P01256:83-119)
# T1 chain: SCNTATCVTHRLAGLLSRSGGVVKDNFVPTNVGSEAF
# Procedure Text: SPR; KD in narrow band around G12
# Applied Conditions: protein: synthetic; tags: biotin; synthetic peptide, Jerini

# Binder, binding result
data = [
    ("G12f (ssRNA) RNA: GGAGCUCAGCCUUCACUGCAUCGAGGGCGAUCCAAGUUGUAGGAAUGGGGUGGCUUGGAGGGCACCACGGUCGGAUCCAG", "binds"),
    ("G12e (ssRNA) RNA: GGAGCUCAGCCUUCACUGCAUCGAGGCGAUCCAAGUUGUAGGAAUUGGAUGACUUGGAGGGCACCACGGUCGGAUCCAG", "binds"),
    ("G12c (ssRNA) RNA: GGAGCUCAGCCUUCACUGCAUCGAGGCGAUCCAAGUUGAGGAAUGGGGUGGCUUGGAGGGCACCACGGUCGGAUCCAG", "binds"),
]
